# System: Neuro2A cells
# assay explanation: Neurite outgrowth assay
# Assay type: cell-based, mouse
# experimental context: Neuro2A cells, average neurite length
optimum neuritogenic concentration values, listed per item

| compound | target desc | optimum neuritogenic concentration (µM) |
| --- | --- | --- |
| O=C(CCCCCCC(=NO)c1ccc2c(c1)c1ccccc1n2Cc1ccccc1)NO | Neuro2A cells | 0.1 |
| O=C(CCCCCc1ccc2c(c1)c1ccccc1n2Cc1ccccc1)NO | Neuro2A cells | 0.1 |
| CN1CCc2c(c3ccccc3n2Cc2ccc(C(=O)NO)cc2)C1 [tubastatin-A, reference compound] | Neuro2A cells | 10 |
| O=C(CCCC(=NO)n1c2ccccc2c2ccccc21)NO | Neuro2A cells | 0.1 |
| O=C(CCCCCCC(=O)Nc1ccccc1)NO [vorinostat, suberoylanilide hydroxamic acid, reference compound] | Neuro2A cells | 1 |
| O=C(CCCCC(=NO)c1ccc2c(c1)c1ccccc1n2Cc1ccccc1)NO | Neuro2A cells | 0.01 |
| O=C(CCCCc1ccc2c(c1)c1ccccc1n2CC(=O)NO)NO | Neuro2A cells | 0.1 |
| O=C(CCCCCCCc1ccc2[nH]c3ccccc3c2c1)NO [Compound 5, 8-(9H-Carbazol-3-yl)-N-hydroxyoctanamide] | Neuro2A cells | 1 |
| O=C(CCCCC(=NO)n1c2ccccc2c2ccccc21)NO | Neuro2A cells | 0.1 |
